- Target desc: KDR (human, UniProt P35968 20-1356)
- Sequence (P35968 20-1356): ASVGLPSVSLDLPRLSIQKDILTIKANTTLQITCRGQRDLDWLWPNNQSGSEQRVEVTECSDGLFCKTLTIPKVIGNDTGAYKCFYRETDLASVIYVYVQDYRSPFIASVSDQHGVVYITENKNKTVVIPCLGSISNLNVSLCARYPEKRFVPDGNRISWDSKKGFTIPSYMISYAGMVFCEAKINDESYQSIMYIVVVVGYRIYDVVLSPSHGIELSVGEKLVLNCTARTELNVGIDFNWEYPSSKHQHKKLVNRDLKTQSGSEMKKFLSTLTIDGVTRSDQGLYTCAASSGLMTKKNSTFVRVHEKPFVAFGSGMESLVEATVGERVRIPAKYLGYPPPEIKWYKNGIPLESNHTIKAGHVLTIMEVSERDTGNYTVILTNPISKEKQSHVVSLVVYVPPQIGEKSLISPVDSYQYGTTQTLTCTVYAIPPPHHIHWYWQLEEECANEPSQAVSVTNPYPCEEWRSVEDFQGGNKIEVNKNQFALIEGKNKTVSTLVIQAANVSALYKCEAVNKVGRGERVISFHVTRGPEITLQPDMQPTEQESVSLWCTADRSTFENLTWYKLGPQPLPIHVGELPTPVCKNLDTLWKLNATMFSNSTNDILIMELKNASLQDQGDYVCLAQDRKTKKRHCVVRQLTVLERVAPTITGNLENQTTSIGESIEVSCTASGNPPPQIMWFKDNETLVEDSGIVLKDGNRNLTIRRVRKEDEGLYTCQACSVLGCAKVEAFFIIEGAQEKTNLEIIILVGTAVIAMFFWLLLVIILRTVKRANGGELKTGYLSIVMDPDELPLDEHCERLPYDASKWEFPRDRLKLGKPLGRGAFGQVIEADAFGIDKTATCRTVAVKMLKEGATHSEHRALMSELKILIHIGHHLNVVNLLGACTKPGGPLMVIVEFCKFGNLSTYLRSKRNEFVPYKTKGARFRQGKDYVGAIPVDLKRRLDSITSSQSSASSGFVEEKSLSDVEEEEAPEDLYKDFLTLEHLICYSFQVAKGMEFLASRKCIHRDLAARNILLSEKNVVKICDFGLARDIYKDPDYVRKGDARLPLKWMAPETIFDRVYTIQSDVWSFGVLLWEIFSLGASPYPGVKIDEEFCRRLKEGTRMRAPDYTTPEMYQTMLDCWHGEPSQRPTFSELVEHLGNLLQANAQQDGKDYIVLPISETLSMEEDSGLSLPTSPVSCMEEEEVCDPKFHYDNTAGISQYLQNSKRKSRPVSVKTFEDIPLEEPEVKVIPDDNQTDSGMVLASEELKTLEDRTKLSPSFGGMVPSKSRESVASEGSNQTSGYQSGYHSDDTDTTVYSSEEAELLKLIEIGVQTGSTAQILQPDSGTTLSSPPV
- Test protocol: cell-based or functional assay
Quantity measured: % of Max VEGF KDR pTyr Activity (at 133 nM antibody concentration), N = 2 (%)
Please reply with the bare figure in % and do not write the unit itself.

Record excerpt, results attached:
| Binder | Test value |
| --- | --- |
| 33E1 (antibody, V domains shown) VH: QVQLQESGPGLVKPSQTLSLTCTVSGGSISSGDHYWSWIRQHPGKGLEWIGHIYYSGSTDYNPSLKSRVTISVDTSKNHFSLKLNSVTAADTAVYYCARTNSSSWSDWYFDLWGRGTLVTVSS VL: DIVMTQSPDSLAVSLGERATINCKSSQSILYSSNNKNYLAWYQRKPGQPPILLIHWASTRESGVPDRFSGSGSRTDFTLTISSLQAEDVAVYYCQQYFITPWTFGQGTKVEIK | 10 |
| 21H6 (antibody, V domains shown) VH: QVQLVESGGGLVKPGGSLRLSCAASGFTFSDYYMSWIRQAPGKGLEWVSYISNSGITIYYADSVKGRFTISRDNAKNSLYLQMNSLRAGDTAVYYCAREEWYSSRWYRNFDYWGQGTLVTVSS VL: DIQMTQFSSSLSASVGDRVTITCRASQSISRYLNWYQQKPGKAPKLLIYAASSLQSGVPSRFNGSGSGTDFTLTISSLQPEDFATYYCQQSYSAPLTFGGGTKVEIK | 12 |
| 32G7 (antibody, V domains shown) VH: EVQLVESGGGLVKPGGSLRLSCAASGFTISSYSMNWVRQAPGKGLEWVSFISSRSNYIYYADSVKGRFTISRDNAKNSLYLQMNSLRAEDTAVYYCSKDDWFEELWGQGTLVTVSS VL: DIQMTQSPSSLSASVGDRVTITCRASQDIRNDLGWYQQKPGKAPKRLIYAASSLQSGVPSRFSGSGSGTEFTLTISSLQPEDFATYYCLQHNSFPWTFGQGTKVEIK | 6 |
| 27A3 (antibody, V domains shown) VH: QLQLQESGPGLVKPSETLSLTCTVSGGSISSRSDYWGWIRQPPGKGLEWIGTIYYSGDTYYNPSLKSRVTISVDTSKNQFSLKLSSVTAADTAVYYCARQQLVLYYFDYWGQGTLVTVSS VL: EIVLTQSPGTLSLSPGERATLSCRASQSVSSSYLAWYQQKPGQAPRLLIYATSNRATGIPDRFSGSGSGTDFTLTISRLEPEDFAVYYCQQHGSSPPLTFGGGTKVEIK | 17 |
| 30F6 (antibody, V domains shown) VH: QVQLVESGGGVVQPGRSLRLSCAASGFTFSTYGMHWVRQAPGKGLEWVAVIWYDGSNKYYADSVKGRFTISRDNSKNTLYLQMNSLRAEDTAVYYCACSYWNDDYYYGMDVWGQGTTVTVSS VL: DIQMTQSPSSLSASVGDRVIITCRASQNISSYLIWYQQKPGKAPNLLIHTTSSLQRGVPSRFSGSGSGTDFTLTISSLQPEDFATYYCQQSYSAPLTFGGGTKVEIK | 13 |
| 33D5 (antibody, V domains shown) VH: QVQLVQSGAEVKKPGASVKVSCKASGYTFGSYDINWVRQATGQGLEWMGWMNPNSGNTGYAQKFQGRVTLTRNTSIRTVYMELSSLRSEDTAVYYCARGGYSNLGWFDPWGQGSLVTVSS VL: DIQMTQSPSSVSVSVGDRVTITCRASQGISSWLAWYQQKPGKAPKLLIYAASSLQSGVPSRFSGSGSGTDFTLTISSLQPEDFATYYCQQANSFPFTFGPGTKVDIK | 15 |
| 30D7 (antibody, V domains shown) VH: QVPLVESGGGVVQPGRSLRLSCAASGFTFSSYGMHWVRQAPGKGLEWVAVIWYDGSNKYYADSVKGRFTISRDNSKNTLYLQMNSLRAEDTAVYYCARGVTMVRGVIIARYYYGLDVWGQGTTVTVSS VL: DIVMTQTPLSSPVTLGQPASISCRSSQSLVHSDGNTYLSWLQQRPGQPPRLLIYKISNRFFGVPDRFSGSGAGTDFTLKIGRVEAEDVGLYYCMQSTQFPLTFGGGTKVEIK | 12 |
| 29H3 (antibody, V domains shown) VH: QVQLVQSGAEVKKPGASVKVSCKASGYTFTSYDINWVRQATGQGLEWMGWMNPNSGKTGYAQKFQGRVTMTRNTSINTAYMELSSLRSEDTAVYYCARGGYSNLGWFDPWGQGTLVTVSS VL: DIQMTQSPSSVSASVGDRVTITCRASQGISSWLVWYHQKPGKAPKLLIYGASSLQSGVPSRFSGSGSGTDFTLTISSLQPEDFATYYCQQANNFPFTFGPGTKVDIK | 11 |

State the recorded % of Max VEGF KDR pTyr Activity (at 133 nM antibody concentration), N = 2 for this entry: 22B8 (antibody, V domains shown) VH: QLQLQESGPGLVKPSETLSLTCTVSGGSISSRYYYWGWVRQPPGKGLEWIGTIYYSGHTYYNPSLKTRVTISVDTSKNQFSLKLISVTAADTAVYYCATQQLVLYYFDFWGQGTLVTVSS VL: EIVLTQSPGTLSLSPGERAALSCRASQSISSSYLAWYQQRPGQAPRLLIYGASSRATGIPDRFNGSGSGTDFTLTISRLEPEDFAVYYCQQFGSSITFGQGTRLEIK
5

And for 21H9 (antibody, V domains shown) VH: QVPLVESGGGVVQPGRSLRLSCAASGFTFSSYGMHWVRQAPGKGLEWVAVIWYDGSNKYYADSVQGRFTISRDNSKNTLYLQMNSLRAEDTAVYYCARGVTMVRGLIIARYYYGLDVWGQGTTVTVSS VL: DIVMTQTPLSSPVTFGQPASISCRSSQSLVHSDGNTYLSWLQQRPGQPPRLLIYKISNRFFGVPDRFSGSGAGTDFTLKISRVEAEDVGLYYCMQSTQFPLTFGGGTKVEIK ?
13
